Source of measurements: patent US20120122840A1

biological target: JNK (Homo sapiens, UniProt P45983)
Sequence (P45983 whole entry): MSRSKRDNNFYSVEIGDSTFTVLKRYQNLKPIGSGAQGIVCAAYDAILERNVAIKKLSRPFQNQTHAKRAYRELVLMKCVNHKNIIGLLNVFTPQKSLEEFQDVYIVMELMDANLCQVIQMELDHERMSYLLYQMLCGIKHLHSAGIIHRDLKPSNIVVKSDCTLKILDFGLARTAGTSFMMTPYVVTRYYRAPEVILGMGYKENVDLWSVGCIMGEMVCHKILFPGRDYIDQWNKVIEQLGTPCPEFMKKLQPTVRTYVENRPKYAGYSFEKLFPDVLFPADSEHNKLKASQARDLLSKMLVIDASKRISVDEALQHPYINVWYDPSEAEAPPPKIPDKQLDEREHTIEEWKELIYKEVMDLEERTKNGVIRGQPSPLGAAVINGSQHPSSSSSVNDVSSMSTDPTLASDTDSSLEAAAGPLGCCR
OUTCOME MEASURE: IC50 (nM)

I = Cc1cc(OCCCN)ccc1Nc1nc(NC2CCCCC2)c2nc[nH]c2n1
II = NCCCOc1ccc(Nc2nc(NC3CCCCC3)c3nc[nH]c3n2)cc1
Compare I and II by numeric IC50 and name the larger one. Reply briefly: the label of your chosen item.
I

* * *

system: DMS-114; test: CellTiter Glo cell viability, 7 days; assay type: cell-based; conditions: Homo sapiens, 168 h, lung, read-out: 7 day IC50
OUTCOME MEASURE: IC50 (nM)
Report the value in nM with no unit label.

Fill in the blank: the reported IC50 of `Cc1cc(N2CCOCC2)ccc1Nc1nc(NC2CCCCC2)c2nc[nH]c2n1` is ____.
180

* * *

test system: HCT-15; test: CellTiter Glo cell viability, 7 days; format: cell-based; conditions: Homo sapiens, 168 h, colon, read-out: 7 day IC50
OUTCOME MEASURE: IC50 (nM)
Report the value in nM with no unit label.

Fill in the blank: the reported IC50 of `Cc1cc(N2CCOCC2)ccc1Nc1nc(NC2CCCCC2)c2nc[nH]c2n1` is ____.
280

* * *

test system: MDA-MB-231; assay: CellTiter Glo cell viability, 7 days; type: cell-based; settings: Homo sapiens, 168 h, breast, read-out: 7 day IC50
OUTCOME MEASURE: pIC50
Note: pIC50 values are expressed as the negative base-10 logarithm of concentration in M.

Fill in the blank: the reported pIC50 of `Cc1cc(N2CCOCC2)ccc1Nc1nc(NC2CCCCC2)c2nc[nH]c2n1` is ____.
4.55

* * *

target: JAK1 (Homo sapiens); construct: Cellular proteins were prepared by mild sonication in lysis buffer; endogenous in cells; test: In vitro binding assays
Sequence (P23458 whole entry, species assumed): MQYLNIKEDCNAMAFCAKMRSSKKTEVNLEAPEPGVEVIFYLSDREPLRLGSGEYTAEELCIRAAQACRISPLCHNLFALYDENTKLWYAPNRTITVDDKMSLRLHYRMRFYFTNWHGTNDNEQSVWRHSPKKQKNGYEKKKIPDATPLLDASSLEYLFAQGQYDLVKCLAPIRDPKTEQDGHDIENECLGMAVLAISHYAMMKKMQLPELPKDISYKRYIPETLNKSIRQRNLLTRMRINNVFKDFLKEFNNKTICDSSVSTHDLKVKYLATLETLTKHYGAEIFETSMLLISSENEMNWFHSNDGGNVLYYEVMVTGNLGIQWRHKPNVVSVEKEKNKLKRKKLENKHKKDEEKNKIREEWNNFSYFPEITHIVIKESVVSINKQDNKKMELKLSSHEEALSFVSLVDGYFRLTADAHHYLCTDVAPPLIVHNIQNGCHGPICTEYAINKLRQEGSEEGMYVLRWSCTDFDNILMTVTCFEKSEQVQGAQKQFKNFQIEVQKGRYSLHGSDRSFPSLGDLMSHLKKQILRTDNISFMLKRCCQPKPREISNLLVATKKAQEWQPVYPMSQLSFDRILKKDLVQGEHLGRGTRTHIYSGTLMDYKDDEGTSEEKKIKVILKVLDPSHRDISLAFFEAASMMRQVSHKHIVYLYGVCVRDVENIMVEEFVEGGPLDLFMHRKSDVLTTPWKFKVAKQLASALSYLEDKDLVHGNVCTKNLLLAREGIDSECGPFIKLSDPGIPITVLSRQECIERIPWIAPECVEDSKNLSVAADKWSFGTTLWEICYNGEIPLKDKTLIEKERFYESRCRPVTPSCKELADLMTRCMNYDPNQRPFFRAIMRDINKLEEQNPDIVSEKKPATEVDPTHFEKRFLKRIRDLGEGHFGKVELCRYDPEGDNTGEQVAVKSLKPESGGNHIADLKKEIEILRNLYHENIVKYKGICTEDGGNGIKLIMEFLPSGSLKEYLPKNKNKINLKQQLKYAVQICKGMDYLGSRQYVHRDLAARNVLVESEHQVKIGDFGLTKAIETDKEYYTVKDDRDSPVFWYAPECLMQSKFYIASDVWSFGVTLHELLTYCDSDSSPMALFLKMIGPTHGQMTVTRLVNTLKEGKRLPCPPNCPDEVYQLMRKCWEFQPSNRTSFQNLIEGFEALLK
OUTCOME MEASURE: IC50 (nM)
Report the value in nM with no unit label.

Fill in the blank: the reported IC50 of `NCCCOc1ccc(Nc2nc(NC3CCCCC3)c3nc[nH]c3n2)cc1` is ____.
320

* * *

system: OVCAR-5; test: CellTiter Glo cell viability, 7 days; assay type: cell-based; details: Homo sapiens, 168 h, ovarian, read-out: 7 day IC50
OUTCOME MEASURE: pIC50
Note: pIC50 values are expressed as the negative base-10 logarithm of concentration in M.

Fill in the blank: the reported pIC50 of `Cc1cc(N2CCOCC2)ccc1Nc1nc(NC2CCCCC2)c2nc[nH]c2n1` is ____.
6.82

* * *

test system: 786-0; assay: CellTiter Glo cell viability, 7 days; type: cell-based; conditions: Homo sapiens, 168 h, kidney, read-out: 7 day IC50
OUTCOME MEASURE: IC50 (µM)
Report the value in µM with no unit label.

Fill in the blank: the reported IC50 of `Cc1cc(N2CCOCC2)ccc1Nc1nc(NC2CCCCC2)c2nc[nH]c2n1` is ____.
1.2

* * *

system: KARPAS-299; experiment: CellTiter Glo cell viability, 7 days; type: cell-based; conditions: Homo sapiens, 168 h, blood, read-out: 7 day IC50
OUTCOME MEASURE: IC50 (nM)
Report the value in nM with no unit label.

Fill in the blank: the reported IC50 of `Cc1cc(N2CCOCC2)ccc1Nc1nc(NC2CCCCC2)c2nc[nH]c2n1` is ____.
96
